Molecular target: 3-oxo-5-alpha-steroid 4-dehydrogenase 2 (Homo sapiens, UniProt P31213)
Sequence (P31213 whole entry): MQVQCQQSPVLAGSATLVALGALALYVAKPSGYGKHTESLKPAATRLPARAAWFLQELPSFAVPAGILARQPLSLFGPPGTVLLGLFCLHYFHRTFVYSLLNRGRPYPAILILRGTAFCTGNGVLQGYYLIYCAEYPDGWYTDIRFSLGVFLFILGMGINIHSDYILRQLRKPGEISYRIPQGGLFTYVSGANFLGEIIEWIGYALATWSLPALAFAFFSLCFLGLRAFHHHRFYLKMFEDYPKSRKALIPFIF
Label scheme for IC50: bottom range (below 0.5 nM), center range (0.5 nM to below 2 nM), top range (2 nM or more)

Entry `C[C@]12CC[C@H]3[C@@H](CNC4=CC(=O)CC[C@@]43C)[C@@H]1CC[C@@H]2C(=O)NC(c1ccccc1)(c1ccccc1)c1ccccc1` belongs to which category?
bottom range

Entry `CC(C)N(C(=O)[C@H]1CC[C@H]2[C@@H]3CNC4=CC(=O)CC[C@]4(C)[C@H]3CC[C@]12C)C(C)C` belongs to which category?
bottom range

Entry `C[C@]12CC[C@H]3[C@@H](CNC4=CC(=O)CC[C@@]43C)[C@@H]1CC[C@@H]2C(=O)N1CCOCC1` belongs to which category?
top range

Entry `CCN(CC)C(=O)[C@H]1CC[C@H]2[C@@H]3CN(C)C4=CC(=O)C=C[C@]4(C)[C@H]3CC[C@]12C` belongs to which category?
top range

Entry `CCN(CC)C(=O)[C@H]1CC[C@H]2[C@@H]3CNC4=C(C)C(=O)C=C[C@]4(C)[C@H]3CC[C@]12C` belongs to which category?
top range

Entry `CN1C[C@H]2[C@@H]3CC[C@H](C(=O)NC(c4ccccc4)c4ccccc4)[C@@]3(C)CC[C@@H]2[C@@]2(C)CCC(=O)C=C12` belongs to which category?
bottom range

Entry `C[C@]12CC[C@H]3[C@@H](CNC4=CC(=O)CC[C@@]43C)[C@@H]1CC[C@@H]2C(=O)NN(c1ccccc1)c1ccccc1` belongs to which category?
bottom range

Entry `CCN(CC)C(=O)[C@H]1CC[C@H]2[C@@H]3CNC4=C(Br)C(=O)CC[C@]4(C)[C@H]3CC[C@]12C` belongs to which category?
top range

Entry `CCCN1C[C@H]2[C@@H]3CC[C@H](C(=O)NC(c4ccccc4)c4ccccc4)[C@@]3(C)CC[C@@H]2[C@@]2(C)C=CC(=O)C=C12` belongs to which category?
center range

Entry `CCN(CC)C(=O)[C@H]1CC[C@H]2[C@@H]3CNC4=CC(=O)CC[C@]4(C)[C@H]3CC[C@]12C` belongs to which category?
center range

Entry `CON(C)C(=O)[C@H]1CC[C@H]2[C@@H]3CNC4=CC(=O)CC[C@]4(C)[C@H]3CC[C@]12C` belongs to which category?
top range

Entry `CCN(CC)C(=O)[C@H]1CC[C@H]2[C@@H]3CN(C)C4=CC(=O)CC[C@]4(C)[C@H]3CC[C@]12C` belongs to which category?
top range

Entry `CCN(CC)C(=O)[C@H]1CC[C@H]2[C@@H]3CNC4=CC(=O)C=C[C@]4(C)[C@H]3CC[C@]12C` belongs to which category?
top range
